Molecular target: T1, 4H687-AA
T1 chain: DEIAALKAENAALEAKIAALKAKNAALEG
Assay: two-hybrid library CCmax;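 further: natural log of median RNA to DNA barcode read ratio; higher means stronger binding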
Settings: mean of both orientations
Could you please report measured interaction score for the items listed next?
Output spec: single numeric token, no unit.

In: Item DKNAALEAKIAALEAENAALKAEIAALKG [4H3354-AA] has what recorded interaction score?
Out: -1.69

In: Continue with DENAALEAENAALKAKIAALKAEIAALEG [4H1257-AA]
Out: -1.24

In: Continue with DENAALEAKNAALEAKIAALEAKIAALKG [4H1446-AA]
Out: -1.79

In: Continue with DEIAALKAEIAALEAKNAALEAKNAALKG [4H568-AA]
Out: -1.51
